- System: 941728-121-R-J1-PDC complex spheroid viability;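 further: spheroids exposed to compounds for 7 days before readout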
- Method notes: Anticancer human tumor 941728-121-R-J1-PDC patient-derived lung adenocarcinoma cell line growth inhibition [RAS]; active means viability on the fitted dose curve at most 10% of control; inactive means the rest
- Experimental setup: second compound 0.0949 µM; first compound 3.16 µM
Possible outcomes: active, inactive

# Compound, Qualitative label
data = [
    ("CC(Nc1ccc2c(c1)OCCn1cc(N3C(=O)OCC3C(F)F)nc1-2)C(N)=O (stereo not drawn) + CCn1c(-c2cc(N3CCN(C)CC3)cnc2C(C)OC)c2c3cc(ccc31)-c1csc(n1)CC(NC(=O)C1CC1C)C(=O)N1CCCC(N1)C(=O)OCC(C)(C)C2", "active"),
    ("Cc1nc(N2CCC3(CC2)COC(C)C3N)c(CO)nc1Sc1ccnc(N)c1Cl (stereo not drawn) + CCn1c(-c2cccnc2C(C)OC)c2c3cc(ccc31)N1CCOC(CC(NC(=O)C(C(C)C)N(C)C(=O)C3(F)CCN(C(=O)C#CC(C)(C)N(C)C)CC3)C(=O)N3CCCC(N3)C(=O)OCC(C)(C)C2)C1", "inactive"),
    ("CC(C)NCC(C(=O)N1CCN(c2ncnc3c2C(C)CC3O)CC1)c1ccc(Cl)cc1 (stereo not drawn) + CCn1c(-c2cc(N3CCN(C)CC3)cnc2C(C)OC)c2c3cc(ccc31)-c1csc(n1)CC(NC(=O)C1CC1C)C(=O)N1CCCC(N1)C(=O)OCC(C)(C)C2", "active"),
    ("CC(=O)OC12COC1CC(O)C1(C)C(=O)C(O)C3=C(C)C(OC(=O)C(O)C(NC(=O)OC(C)(C)C)c4ccccc4)CC(O)(C(OC(=O)c4ccccc4)C21)C3(C)C (stereo not drawn) + CCn1c(-c2cc(N3CCN(C)CC3)cnc2C(C)OC)c2c3cc(ccc31)-c1csc(n1)CC(NC(=O)C1CC1C)C(=O)N1CCCC(N1)C(=O)OCC(C)(C)C2", "active"),
    ("NC1c2ccccc2OC12CCN(c1cnc3c(N4CCCc5ncccc54)n[nH]c3n1)CC2 (stereo not drawn) + CCn1c(-c2cccnc2C(C)OC)c2c3cc(ccc31)N1CCOC(CC(NC(=O)C(C(C)C)N(C)C(=O)C3(F)CCN(C(=O)C#CC(C)(C)N(C)C)CC3)C(=O)N3CCCC(N3)C(=O)OCC(C)(C)C2)C1", "inactive"),
    ("NC1c2ccccc2OC12CCN(c1cnc3c(N4CCCc5ncccc54)n[nH]c3n1)CC2 (stereo not drawn) + CCn1c(-c2cc(N3CCN(C)CC3)cnc2C(C)OC)c2c3cc(ccc31)-c1csc(n1)CC(NC(=O)C1CC1C)C(=O)N1CCCC(N1)C(=O)OCC(C)(C)C2", "inactive"),
    ("CC(Nc1ccc2c(c1)OCCn1cc(N3C(=O)OCC3C(F)F)nc1-2)C(N)=O (stereo not drawn) + CCn1c(-c2cccnc2C(C)OC)c2c3cc(ccc31)N1CCOC(CC(NC(=O)C(C(C)C)N(C)C(=O)C3(F)CCN(C(=O)C#CC(C)(C)N(C)C)CC3)C(=O)N3CCCC(N3)C(=O)OCC(C)(C)C2)C1", "inactive"),
    ("C[C@@H](NC(=O)c1ncnc(N)c1Cl)c1ncc(C(=O)Nc2cc(C(F)(F)F)c(Cl)cn2)s1 + CCn1c(-c2cc(N3CCN(C)CC3)cnc2C(C)OC)c2c3cc(ccc31)-c1csc(n1)CC(NC(=O)C1CC1C)C(=O)N1CCCC(N1)C(=O)OCC(C)(C)C2", "inactive"),
]

Value source: PubChem BioAssay AID2060896
